Form field: IC50 (one value per entry).
assayOverview: Cytotoxicity against human QSG7701 cells assessed as cell growth inhibition after 48 hrs by MTT assay
Type: cell-based
conditionSummary: QSG7701, 48 h
Number only, in µM; omit the unit.

See these solved cases before continuing.
Query block: Return reported IC50. Input compound: O=C1c2cccc3c(-c4cc(=O)c5ccccc5o4)ccc(c23)C(=O)N1CCCN1CCOCC1
Result block: 47.7

Query block: Return reported IC50. Input compound: O=C1c2cccc3c(-c4cc(=O)c5ccccc5o4)ccc(c23)C(=O)N1CCCN1CCNCC1
Result block: 34.7

Query block: Return reported IC50. Input compound: O=C1c2cccc3c(-c4cc(=O)c5ccccc5o4)ccc(c23)C(=O)N1CCCCN1CCNCC1
Result block: 16.9

New cases:
Query block: Return reported IC50. Input compound: NCCCNCCCNCCCN1C(=O)c2cccc3c(-c4cc(=O)c5ccccc5o4)ccc(c23)C1=O
Result block: 17.4

Query block: Return reported IC50. Input compound: CN(C)CCN1C(=O)c2cccc3cc(N)cc(c23)C1=O [AMONAFIDE]
Result block: 7.84

Query block: Return reported IC50. Input compound: NCCCCNCCCN1C(=O)c2cccc3c(-c4cc(=O)c5ccccc5o4)ccc(c23)C1=O
Result block: 41.8

Query block: Return reported IC50. Input compound: CCCCNCCCCN1C(=O)c2cccc3c(-c4cc(=O)c5ccccc5o4)ccc(c23)C1=O
Result block: 16.1

Provenance of the data: ChEMBL document CHEMBL4007412
